Taken from paper PMC3006138.

Test: Caco-2 permeability
Settings: human, Caco-2
value.kind: Papp A→B (×10⁻⁶ cm/s)

[[record]]
compound = "C[C@H]1O[C@@H](O[C@H]2[C@@H](O)C[C@H](O[C@H]3[C@@H](O)C[C@H](O[C@H]4CC[C@@]5(C)[C@H](CC[C@@H]6[C@@H]5C[C@@H](O)[C@]5(C)[C@@H](C7=CC(=O)OC7)CC[C@]65O)C4)O[C@@H]3C)O[C@@H]2C)C[C@H](O)[C@@H]1O [Digoxin, reference compound]"
measured_value = 0.53


---

As shown below, each of these compounds has a reported AUC(0-t) value.
Assay: Rat 28-day toxicokinetics
Format: in vivo
Settings: both sexes, Sprague-Dawley (Crl:CD (SD)IGS BR), plasma, po, 800 mg/kg/day, 800 mg/kg/day po, day 1, read-out: AUC0-t(last)
value.kind: AUC(0-t) (µg·h/mL)

[[record]]
compound = "Cn1c([N+](=O)[O-])cnc1COc1ccc([S+](C)[O-])cc1 (stereo not drawn) [Fexinidazole sulfoxide]"
measured_value = 410

[[record]]
compound = "CSc1ccc(OCc2ncc([N+](=O)[O-])n2C)cc1 [Fexinidazole]"
measured_value = 12.8

[[record]]
compound = "Cn1c([N+](=O)[O-])cnc1COc1ccc(S(C)(=O)=O)cc1 [Fexinidazole sulfone]"
measured_value = 574

